Procedure summary: Plasma concentration-time profiles in AN3CA xenograft mice
Assay setup: read-out: Cmax plasma concentration; oral dose levels ≥20 mg/kg
Recorded metric: Cmax

Data request: Give its Cmax value. Item: `CC(=O)N(C)C1CCN(c2cccc(-c3ccc4nc(-c5cccnc5N)n(-c5ccc(C6(N)CCC6)cc5)c4n3)c2)CC1`
Data returned: ≥ 2000 nM
